# experimental-protocol: Cytotoxicity against human Huh-7 cells assessed as cell viability by Cell Titer Glo assay
# Assay type: toxicity, cell-based
measured-endpoint: CC50

Using the record for COc1cc2c(cc1OCCCNC(=O)CCOCCOCCOCCOCCOCCOCCNc1cccc3c1C(=O)N(C1CCC(=O)NC1=O)C3=O)C[C@@H](C(C)C)n1cc(C(=O)O)c(=O)cc1-2 (stereo partly specified) , report its CC50.
> 50 µM
